Would you mind telling me the reported Vd of each entry?
- assay_summary: Volume of distribution at steady state in rat at 2 mg/kg, iv
- Format: ADME, organism-based
- Parameters: dose 2 mg/kg, route intravenous
- test_settings: in vivo, read-out: Vdss
Provide only the numeric value, understood in L/kg.

Indicate its recorded Vd; the compound in question is `C[C@H]1COCCN1C[C@H]1CN(S(=O)(=O)c2cccs2)CCN1c1ccc([C@@](C)(O)C(F)(F)F)cc1`
8.3

Indicate its recorded Vd; the compound in question is `CC#C[C@H]1CN(S(=O)(=O)c2ccc(N)nc2)CCN1c1ccc(C(O)(C(F)(F)F)C(F)(F)F)cc1`
3.6

Indicate its recorded Vd; the compound in question is `Nc1ccc(S(=O)(=O)N2CCN(c3ccc(C(O)(C(F)(F)F)C(F)(F)F)cc3)CC2)cn1`
1.41

Indicate its recorded Vd; the compound in question is `CC#C[C@H]1CN(S(=O)(=O)c2ccc(N)nc2)CCN1c1ccc([C@](C)(O)C(F)(F)F)cc1`
3.7

Indicate its recorded Vd; the compound in question is `CC#C[C@H]1CN(S(=O)(=O)c2ccc(N)nc2)CCN1c1ccc([C@@](C)(O)C(F)(F)F)cc1`
1.6
